Read-out: urokinase plasminogen activator (uPA), PLAU (gene 5328)
Test: BSK_BE3C_uPA: BioMAP Diversity Plus: BE3C Assay for urokinase plasminogen activator (uPA) Biomarker Activity (AID 2283038)
Conditions: primary human bronchial epithelial cells; actives raise or lower the signal
Experimental: BSK_BE3C is a cell-based, multiplexed-readout assay that uses bronchial epithelial cell, a human lung primary cell, with measurements taken at 24 hours after chemical dosing in a 96-well plate.BSK_BE3CA is an assay component measured in the BSK_BE3C assay. It measures uPA antibody related to regulation of gene expression using ELISA technology.Data from the assay component BSK_BE3CA was analyzed into 1 assay endpoint. […]
The source made the active and inactive calls. The calls were made as follows: active = hit-call score of the fitted dose curve at least 0.9, where 1 is the maximum; inactive = score below 0.9.
Outcomes: True = active, False = inactive

| compound | category-label |
| --- | --- |
| Cc1c2ccccc2c(C)c2c1ccc1ccccc12 | False |
| CN1C(=O)CC[C@H]1c1cccnc1 | False |
| COCC(C)OCC(C)OCC(C)O (stereo not drawn) | False |
| Cc1oc2c(NC(=O)c3c(Cl)cccc3Cl)cccc2c1C(C)(C)O | False |
| CCCCCc1ccc(N)cc1 | False |
| c1ccc2n[nH]nc2c1 | False |
| Cc1cc(F)ccc1-c1cc(N2CC[C@@H](O)[C@H]2CO)ncc1N(C)C(=O)C(C)(C)c1cc(C(F)(F)F)cc(C(F)(F)F)c1 | True |
| CCCCCCCCCCCCO | False |
| Oc1ccccc1 | False |
| CC(=O)N1CCN(c2ccc(OC[C@H]3CO[C@](Cn4ccnc4)(c4ccc(Cl)cc4Cl)O3)cc2)CC1 | False |
| CC(C)(c1cc(Br)c(O)c(Br)c1)c1cc(Br)c(O)c(Br)c1 | True |
| O=C(Nc1ccc(Cl)cc1)Nc1ccc(Cl)c(Cl)c1 | False |
| CCCCCCCCN(C)CCCCCCCC | False |

###

Experiment: TOX21_p53_BLA_p3_viability: Viability Assessment in the Tox21 HCT-116 p53 Agonism Beta-lactamase Assay, Phase 3 (AID 2283593);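 also: cells exposed to compound for 16 h before reading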
Results filed as inconclusive are left out. Activity calls are given as the source filed them. Rule for the calls: active = hit-call score of the fitted dose curve at least 0.9, where 1 is the maximum; inconclusive = response in the unintended direction; inactive = score below 0.9.
Outcomes: t (active), f (inactive)

| chemical-string | category-label |
| --- | --- |
| CCCCOC(=O)c1ccc(O)cc1 | f |
| CCCCCCCCOc1ccc(C(=O)c2ccccc2)c(O)c1 | f |
| c1ccc(C[n+]2cccc3ccccc32)cc1 | f |
| Cc1occc1C(=O)Nc1ccc(C(=O)N2CCC(F)(F)/C(=C\C(=O)N3CCC(N4CCCCC4)CC3)c3ccccc32)cc1 | f |
| CN(C)C(=O)C1(N2CCCCC2)CCN(CC[C@@]2(c3ccc(Cl)c(Cl)c3)CN(C(=O)c3ccccc3)CCO2)CC1 | t |
| O=C(O)c1ccccc1C(=O)OCc1ccccc1 | f |
| CC/C(=C(/CC)c1ccc(O)cc1)c1ccc(O)cc1 | f |
| CCN(Cc1cccc(S(=O)(=O)O)c1)c1ccc(C(=C2C=CC(=[N+](CC)Cc3cccc(S(=O)(=O)O)c3)C=C2)c2ccccc2S(=O)(=O)[O-])cc1 | f |
| O=C=NCCCCCCN=C=O | f |
| CC[C@H](NC(=O)c1cc(F)ccc1NS(=O)(=O)c1cccc2cccnc12)c1ccccc1 | f |

###

Test: ATG_MRE_CIS: Attagene CIS-FACTORIAL HepG2 Assay for human Metal Responsive Element (MRE) (AID 2282954)
Conditions: HepG2 MRE cis-reporter transcription, Attagene multiplex; actives raise or lower the signal
Method: ATG_CIS is a cell-based, multiplexed-readout assay that uses HepG2, a human liver cell line, with measurements taken at 24 hours after chemical dosing in a 24-well plate.ATG_MRE_CIS is one of 52 assay component(s) measured or calculated from the ATG_CIS assay. […] This assay endpoint, ATG_MRE_CIS, was analyzed with bidirectional fitting relative to DMSO as the negative control and baseline of activity. […]
Activity calls are given as the source filed them. How the source made its calls: active means hit-call score of the fitted dose curve at least 0.9, where 1 is the maximum; inactive means score below 0.9.
Outcomes: YES (active), NO (inactive)

| chemical-string | category-label |
| --- | --- |
| CCOC(=O)O[C@H](C)OC(=O)c1ccc2c(c1)cc(C(=O)NC1CCN(C(C)C)CC1)n2Cc1cc(-c2ccc(Cl)s2)on1 | YES |
| COc1cc(C(=O)NC2CCN(C)CC2)ccc1Nc1ncc2c(n1)N(C1CCCC1)CC(F)(F)C(=O)N2C | YES |
| Cc1cc2c(cc1C(F)(F)F)N(C(=O)Nc1ccc(Oc3cccnc3C)nc1)CC2 | NO |
| CCN(CC)C(=O)c1cc(S(=O)(=O)Cc2ccccc2)c(N2CCC(c3ccccc3)CC2)cc1N(CC)CCN(C)C | YES |
| CN1C(=O)CC[C@H]1c1cccnc1 | NO |
| CCO[Si](CCCNC(N)=O)(OCC)OCC | NO |
| Clc1ccccc1C(c1ccccc1)(c1ccccc1)n1ccnc1 | YES |
| c1ccc2ccccc2c1 | NO |
| Cc1c2ccccc2c(C)c2c1ccc1ccccc12 | NO |
| Cc1cccc2ccccc12 | NO |
| CCCCCCCCCC(=O)O | NO |
